# maps each entry to its relative viability
System: NCI-H1666
protocolText: relative viability (nuclei count vs DMSO), 5 days (fraction); higher = more cells survive
setupConditions: first compound 8 µM

Known relative viability results, listed for orientation:
>  <compound>
Nc1cccc2c1CN(C1CCC(=O)NC1=O)C2=O (configuration not stated) [Lenalidomide] + NC(=O)Nc1cc(-c2cccc(F)c2)sc1C(=O)N[C@H]1CCCNC1 [AZD7762] (partner 0.2 µM)

>  <relative viability>
0.874

$$$$
>  <compound>
Nc1cccc2c1CN(C1CCC(=O)NC1=O)C2=O (configuration not stated) [Lenalidomide] + Nc1ncn([C@H]2C[C@H](O)[C@@H](CO)O2)c(=O)n1 [Decitabine] (partner 2 µM)

>  <relative viability>
0.647

$$$$
>  <compound>
Nc1cccc2c1CN(C1CCC(=O)NC1=O)C2=O (configuration not stated) [Lenalidomide] + Cc1cc(Nc2cc(N3CCN(C)CC3)nc(Sc3ccc(NC(=O)C4CC4)cc3)n2)n[nH]1 [Tozasertib] (partner 0.1 µM)

>  <relative viability>
0.653

$$$$
>  <compound>
Nc1cccc2c1CN(C1CCC(=O)NC1=O)C2=O (configuration not stated) [Lenalidomide] + Cc1nc(Nc2ncc(C(=O)Nc3c(C)cccc3Cl)s2)cc(N2CCN(CCO)CC2)n1 [Dasatinib] (partner 0.075 µM)

>  <relative viability>
0.783

$$$$
>  <compound>
Nc1cccc2c1CN(C1CCC(=O)NC1=O)C2=O (configuration not stated) [Lenalidomide] + C[C@]1(O)C[C@@H](c2nc(-c3ccc4ccc(-c5ccccc5)nc4c3)c3c(N)nccn32)C1 [Linsitinib] (partner 1 µM)

>  <relative viability>
0.833

$$$$
>  <compound>
Nc1cccc2c1CN(C1CCC(=O)NC1=O)C2=O (configuration not stated) [Lenalidomide] + COc1cc2c(Oc3ccc(NC(=O)C4(C(=O)Nc5ccc(F)cc5)CC4)cc3F)ccnc2cc1OCCCN1CCOCC1 [Foretinib] (partner 0.25 µM)

>  <relative viability>
0.983

$$$$

Proceeding to the next compound to report its relative viability.
Request: Return reported relative viability; argument: Nc1cccc2c1CN(C1CCC(=O)NC1=O)C2=O (configuration not stated) [Lenalidomide] + CS(=O)(=O)CCNCc1ccc(-c2ccc3ncnc(Nc4ccc(OCc5cccc(F)c5)c(Cl)c4)c3c2)o1 [Lapatinib] (partner 2 µM)
Result: 0.513

---

System: NCI-H441
protocolText: relative viability (nuclei count vs DMSO), 5 days (fraction); higher = more cells survive
setupConditions: first compound 0.8 µM
assayEndpoint: relative viability

Known relative viability results, listed for orientation:
>  <compound>
Nc1cccc2c1CN(C1CCC(=O)NC1=O)C2=O (stereo not given) [Lenalidomide] + Cc1nc(Nc2ncc(C(=O)Nc3c(C)cccc3Cl)s2)cc(N2CCN(CCO)CC2)n1 [Dasatinib] (partner 0.075 µM)

>  <assayEndpoint>
relative viability

>  <result>
0.518

$$$$
>  <compound>
Nc1cccc2c1CN(C1CCC(=O)NC1=O)C2=O (stereo not given) [Lenalidomide] + Cc1nc(NC(=O)N2CCC[C@H]2C(N)=O)sc1-c1ccnc(C(C)(C)C(F)(F)F)c1 [Alpelisib] (partner 2 µM)

>  <assayEndpoint>
relative viability

>  <result>
0.663

$$$$
>  <compound>
Nc1cccc2c1CN(C1CCC(=O)NC1=O)C2=O (stereo not given) [Lenalidomide] + COc1cc2c(Oc3ccc(NC(=O)C4(C(=O)Nc5ccc(F)cc5)CC4)cc3F)ccnc2cc1OCCCN1CCOCC1 [Foretinib] (partner 0.25 µM)

>  <assayEndpoint>
relative viability

>  <result>
0.722

$$$$
>  <compound>
Nc1cccc2c1CN(C1CCC(=O)NC1=O)C2=O (stereo not given) [Lenalidomide] + O=C(c1cc(Cc2n[nH]c(=O)c3ccccc23)ccc1F)N1CCN(C(=O)C2CC2)CC1 [Olaparib] (partner 8 µM)

>  <assayEndpoint>
relative viability

>  <result>
0.502

$$$$

Proceeding to the next compound to report its relative viability.
Request: # value lookup — system NCI-H441, readout relative viability, item Nc1cccc2c1CN(C1CCC(=O)NC1=O)C2=O (stereo not given) [Lenalidomide] + Cc1cc(Nc2cc(N3CCN(C)CC3)nc(Sc3ccc(NC(=O)C4CC4)cc3)n2)n[nH]1 [Tozasertib] (partner 0.1 µM)
Result: 0.572
